molecular target: Protein Kinase C beta 2 (PKCβII) (Homo sapiens (Human))
Sequence (P05771 other isoform, or with tags, fused parts or gaps): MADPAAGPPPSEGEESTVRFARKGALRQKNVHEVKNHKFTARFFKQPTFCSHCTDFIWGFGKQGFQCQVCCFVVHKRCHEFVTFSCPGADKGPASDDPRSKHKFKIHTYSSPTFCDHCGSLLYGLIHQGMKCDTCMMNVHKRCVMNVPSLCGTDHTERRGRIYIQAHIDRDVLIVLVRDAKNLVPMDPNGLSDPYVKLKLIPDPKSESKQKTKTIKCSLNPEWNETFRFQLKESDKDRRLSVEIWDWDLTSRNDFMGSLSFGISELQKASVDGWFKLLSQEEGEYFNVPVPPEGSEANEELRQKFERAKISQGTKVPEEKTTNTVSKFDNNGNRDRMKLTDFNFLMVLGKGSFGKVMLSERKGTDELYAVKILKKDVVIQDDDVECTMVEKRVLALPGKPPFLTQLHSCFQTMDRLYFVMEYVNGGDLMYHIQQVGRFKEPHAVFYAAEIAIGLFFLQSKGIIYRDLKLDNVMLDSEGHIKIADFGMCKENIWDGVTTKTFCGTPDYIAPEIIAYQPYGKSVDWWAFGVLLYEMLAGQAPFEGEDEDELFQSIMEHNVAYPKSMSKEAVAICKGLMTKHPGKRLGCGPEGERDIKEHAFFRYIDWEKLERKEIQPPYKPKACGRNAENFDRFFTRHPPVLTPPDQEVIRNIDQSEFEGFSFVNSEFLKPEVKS
pKi: −log10 of the molar value. Where a name gives a salt, the structure may show the parent alone.
Property name: pKi

Recorded pKi, per entry:
Compound: CCN1C[C@H](C)N(C(=O)N2Cc3c(Nc4nc(C)ncc4F)n[nH]c3C2(C)C)C[C@H]1C [AA2]
pKi: 7.72

Compound: CCNc1ncc(F)c(Nc2n[nH]c3c2CN(C(=O)N2C[C@@H](C)N(CCCOC)C[C@@H]2C)C3(C)C)n1 [Example B1, acetate salt]
pKi: 8.29

P. CCOc1ccnc(Nc2n[nH]c3c2CN(C(=O)N2C[C@@H](C)N(C)C[C@@H]2C)C3(C)C)n1 [Example M1]
Q. Cc1ncc(F)c(Nc2n[nH]c3c2CN(C(=O)N2CC(CCO)N(C)C[C@@H]2C)C3(C)C)n1 (single isomer, unassigned) [Example H9]
Req: Which item exceeds the other in pKi, P or Q ? I would appreciate it if you answered with the label of your choice.
Resp: P

* * *

target: UniProtKB P05771
pKi: −log10 of the molar value.
Property name: pKi

Recorded pKi, per entry:
Compound: CCOc1ncc(F)c(Nc2n[nH]c3c2CN(C(=O)N2CCN(C)[C@H](C)C2)C3(C)C)n1 [Example K17]
Measured number: 7.35
--
Compound: Cc1ncc(F)c(Nc2n[nH]c3c2CN(C(=O)C2(F)CCN(C)CC2)C3(C)C)n1 [Example F1]
Measured number: 7.40
--
Compound: CCOc1ncc(F)c(Nc2n[nH]c3c2CN(C(=O)N2C[C@@H]4CCCN4C[C@@H]2C(C)C)C3(C)C)n1 [Example K20]
Measured number: 7.59
--
Compound: C[C@H]1CN(C)C(C)(C)CN1C(=O)N1Cc2c(Nc3ccnc(N(C)C)n3)n[nH]c2C1(C)C [Example A9]
Measured number: 8.01
--
Compound: CCNc1ncc(F)c(Nc2n[nH]c3c2CN(C(=O)N2C[C@@H](C)N(CCOC)C[C@@H]2C)C3(C)C)n1 [Example B4]
Measured number: 7.87

A. CCOc1ncc(F)c(Nc2n[nH]c3c2CN(C(=O)C2(F)CCN(C)CC2)C3(C)C)n1 [Example L1]
B. CC(C)c1ncc(F)c(Nc2n[nH]c3c2CN(C(=O)N2CC(C)(C)N(C)C[C@@H]2C)C3(C)C)n1 [Example I2]
C. Cc1ncc(F)c(Nc2n[nH]c3c2CN(C(=O)N2CC4(CCCC4)N(C)C[C@@H]2C)C3(C)C)n1 [Example A10]
D. CCc1ncc(F)c(Nc2n[nH]c3c2CN(C(=O)N2C[C@@H](C)N(CCCOC)C[C@@H]2C)C3(C)C)n1 [Example E2]
Req: Order the 4 compounds from highest to lowest pKi. // ordering of labels required in reply
Resp: C, D, B, A

I. C[C@@H]1CN(C(=O)N2Cc3c(Nc4nc(N5CCOCC5)ncc4F)n[nH]c3C2(C)C)[C@@H](C)CN1C [Example B7]
II. Cc1ccc(F)c(Nc2n[nH]c3c2CN(C(=O)N2C[C@@H](C)N(C)C[C@@H]2C)C3(C)C)n1 [Example J3]
Req: When the recorded pKi values are compared, which is smaller: that of I or that of II ? I would appreciate it if you answered with the label of your choice.
Resp: I

a. CCOc1ncc(F)c(Nc2n[nH]c3c2CN(C(=O)N2C[C@H](C)N(C)C[C@@H]2C)C3(C)C)n1 [Example K13]
b. COCCOc1ncc(F)c(Nc2n[nH]c3c2CN(C(=O)N2C[C@@H](C)N(C)C[C@@H]2C)C3(C)C)n1 [Example K12]
Req: When the recorded pKi values are compared, which is smaller: that of a or that of b ? I would appreciate it if you answered with the label of your choice.
Resp: a
(a: 7.58, b: 7.82)
